The reported measurements were obtained from patent US20220281821A1.

biological target: BaF3-ETV6-NTRK3 (Homo sapiens); construct: fused on or other part: P41212 (Transcription factor ETV6); assay: Cell proliferation inhibition (CCK-8), BaF3-ETV6-NTRK3 stable strain; settings: BaF3-ETV6-NTRK3, 72 hours
Sequence (Q16288 whole entry, the tested form may be a part): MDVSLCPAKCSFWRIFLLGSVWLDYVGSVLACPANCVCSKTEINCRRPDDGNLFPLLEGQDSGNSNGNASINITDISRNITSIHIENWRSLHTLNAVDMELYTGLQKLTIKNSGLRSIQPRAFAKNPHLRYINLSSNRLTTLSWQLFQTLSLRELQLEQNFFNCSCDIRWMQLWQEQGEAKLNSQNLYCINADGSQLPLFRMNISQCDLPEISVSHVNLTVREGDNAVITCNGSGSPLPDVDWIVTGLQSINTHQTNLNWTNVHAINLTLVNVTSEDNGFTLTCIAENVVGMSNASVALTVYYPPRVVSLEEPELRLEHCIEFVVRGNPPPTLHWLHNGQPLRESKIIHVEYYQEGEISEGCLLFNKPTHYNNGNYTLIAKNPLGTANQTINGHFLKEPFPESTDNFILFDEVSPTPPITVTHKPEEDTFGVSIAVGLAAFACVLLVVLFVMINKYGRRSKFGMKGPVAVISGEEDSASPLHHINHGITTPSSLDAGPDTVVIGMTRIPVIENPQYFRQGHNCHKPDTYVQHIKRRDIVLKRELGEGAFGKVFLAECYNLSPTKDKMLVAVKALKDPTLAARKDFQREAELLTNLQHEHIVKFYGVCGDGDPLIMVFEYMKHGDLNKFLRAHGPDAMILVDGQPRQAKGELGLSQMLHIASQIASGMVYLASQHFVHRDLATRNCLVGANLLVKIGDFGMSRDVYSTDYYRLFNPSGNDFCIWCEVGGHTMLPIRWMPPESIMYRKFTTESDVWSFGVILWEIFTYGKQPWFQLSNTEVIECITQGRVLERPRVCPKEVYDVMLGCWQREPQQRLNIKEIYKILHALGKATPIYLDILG
pIC50: −log10 of the molar value.
PARAMETER MEASURED: pIC50

>>> test_result("Fc1cc(F)cc(NCc2ccc3[nH]nc(/C=C/c4ccccn4)c3c2)c1 [DYX-191]")
6.30
>>> test_result("Fc1cc(F)cc(Cc2ccc3[nH]nc(/C=C/c4cccnc4)c3c2)c1 [DYX-03]")
7.12
>>> test_result("CN1CCN(C(=O)/C=C/c2n[nH]c3ccc(NCc4cc(F)cc(F)c4)cc23)CC1 [DYX-226]")
7.46
>>> test_result("Fc1cc(F)cc(CCc2ccc3[nH]nc(/C=C/c4ccccn4)c3c2)c1 [DYX-180]")
6.38
>>> test_result("Fc1cncc(CNc2ccc3[nH]nc(/C=C/c4ccccn4)c3c2)c1 [DYX-419]")
8.40
>>> test_result("Fc1cc(F)cc(COc2ccc3[nH]nc(/C=C/c4ccccn4)c3c2)c1 [DYX-132]")
7.02
>>> test_result("O=S(=O)(c1cc(F)cc(F)c1)c1ccc2[nH]nc(C#Cc3ccccn3)c2c1 [DYX-108]")
6.13
>>> test_result("COc1ccc(F)cc1CNc1ccc2[nH]nc(/C=C/c3ccccn3)c2c1 [DYX-418]")
7.79
